# measurement-target: T1, human SEMA4D, full length, on CHO-K1 cells (CHO-K1 hSEMA4D) (human, UniProt Q92854 22-862)
# T1 construct: whole, on cells; also called human SEMA4D recombinant cells
# T1 sequence (looked up): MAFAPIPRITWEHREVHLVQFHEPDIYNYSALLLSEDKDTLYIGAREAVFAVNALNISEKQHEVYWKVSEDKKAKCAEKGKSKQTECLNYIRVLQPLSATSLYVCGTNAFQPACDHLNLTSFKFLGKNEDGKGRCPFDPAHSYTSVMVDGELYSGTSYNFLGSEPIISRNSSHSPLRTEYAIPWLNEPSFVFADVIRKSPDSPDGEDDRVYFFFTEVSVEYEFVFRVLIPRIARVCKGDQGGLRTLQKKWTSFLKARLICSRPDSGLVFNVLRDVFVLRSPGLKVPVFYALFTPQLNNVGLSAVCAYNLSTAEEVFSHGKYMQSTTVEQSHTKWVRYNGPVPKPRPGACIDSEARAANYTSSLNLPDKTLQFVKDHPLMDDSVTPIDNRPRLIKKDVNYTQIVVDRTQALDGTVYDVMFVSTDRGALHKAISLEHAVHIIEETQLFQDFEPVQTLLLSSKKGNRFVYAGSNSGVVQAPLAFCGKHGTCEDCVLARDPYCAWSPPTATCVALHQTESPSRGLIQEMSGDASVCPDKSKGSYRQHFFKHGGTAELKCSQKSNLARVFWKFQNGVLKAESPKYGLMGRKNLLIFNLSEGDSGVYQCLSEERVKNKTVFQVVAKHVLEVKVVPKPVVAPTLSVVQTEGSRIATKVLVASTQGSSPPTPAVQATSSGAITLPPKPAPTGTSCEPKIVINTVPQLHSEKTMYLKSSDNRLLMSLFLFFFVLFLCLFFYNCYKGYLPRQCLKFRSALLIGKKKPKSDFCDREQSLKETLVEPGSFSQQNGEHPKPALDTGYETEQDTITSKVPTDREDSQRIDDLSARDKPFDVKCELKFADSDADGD
# assay-name: FACS, CHO-K1 hSEMA4D cells; Ab 13.3 nM
observation-type: MFI

Q: What value of measured MFI is listed for 42B7G2 (antibody, V domains shown, Mouse monoclonal antibody purified from hybridoma supernatant on protein A) VH: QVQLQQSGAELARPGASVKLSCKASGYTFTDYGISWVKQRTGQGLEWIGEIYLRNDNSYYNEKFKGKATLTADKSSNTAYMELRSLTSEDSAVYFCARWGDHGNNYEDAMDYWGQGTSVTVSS VL: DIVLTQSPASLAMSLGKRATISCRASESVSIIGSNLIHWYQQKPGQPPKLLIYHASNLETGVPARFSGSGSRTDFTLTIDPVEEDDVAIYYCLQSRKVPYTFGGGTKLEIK ?
Ans: 3950

Q: Please do the same for 31G10C5 (antibody, V domains shown, Mouse monoclonal antibody purified from hybridoma supernatant on protein A) VH: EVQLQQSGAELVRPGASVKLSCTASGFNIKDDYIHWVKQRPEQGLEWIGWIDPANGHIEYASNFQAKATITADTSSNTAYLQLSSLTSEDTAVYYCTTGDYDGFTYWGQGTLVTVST VL: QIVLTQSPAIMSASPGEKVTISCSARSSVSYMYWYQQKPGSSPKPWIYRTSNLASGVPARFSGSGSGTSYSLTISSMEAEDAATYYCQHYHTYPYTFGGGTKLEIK as well.
Ans: 6180
